Below, each entry is listed alongside its reported viability at 48 h, 10 µM.
assay: in vitro; design: species or system CCD841, HEK293; settings: human, hb2 cells, read-out: HB-2 Cells Viability (%)
reported.property: viability at 48 h, 10 µM (%)

molecule="C=CC(=O)N1CCNC(=O)C1c1cccs1 (stereo not shown) [PCM-0102597]" value_reported=103
molecule="O=C(CCl)NC(=O)Nc1ccc2c(c1)OCO2 [PCM-0102333]" value_reported=83.2
molecule="Cc1ccc(C2=NN(C(=O)CCl)C(c3ccco3)C2)o1 (stereo not shown) [PCM-0102102]" value_reported=9.4
molecule="O=C(CCl)NNC(=O)c1cc2c(s1)CCCC2 [PCM-0102142]" value_reported=49
molecule="O=C(CCl)Nc1cc(F)ccc1C(=O)O [PCM-0102247]" value_reported=106
molecule="C=CC(=O)N1CCC(C(=O)O)(c2ccccc2)CC1 [PCM-0102459]" value_reported=103
molecule="C=CC(=O)N1CCC(C(=O)c2ccc3c(c2)NC(=O)C(C)O3)CC1 (stereo not shown) [PCM-0102524]" value_reported=103
molecule="O=C(CCl)N1CCNC1=O [PCM-0102338]" value_reported=99.5
molecule="CN(CC(=O)NC(C)(C)C)C(=O)CCl [PCM-0102259]" value_reported=97.2
molecule="O=C(CCl)Nc1ccccc1 [PCM-0102658]" value_reported=72
molecule="Cc1cccc(CNC(=O)CCl)c1 [PCM-0102821]" value_reported=99.7
molecule="Cc1ccc(Cn2ccsc2=NC(=O)CCl)cc1 [PCM-0102708]" value_reported=36
molecule="C=CC(=O)N1CCCC(c2ncc(C(F)(F)F)[nH]2)C1 (stereo not shown) [PCM-0102527]" value_reported=98.6
molecule="CC1CCc2c(sc(NC(=O)CCl)c2C(N)=O)C1 (stereo not shown) [PCM-0103029]" value_reported=21
molecule="C=CC(=O)Nc1ccc(C)c(F)c1 [PCM-0102878]" value_reported=102
molecule="C=CC(=O)NC1CCCn2nc(C)nc21 (stereo not shown) [PCM-0103083]" value_reported=105
molecule="CN(C)C(=O)CN(C)C(=O)CCl [PCM-0102632]" value_reported=102
molecule="C=CC(=O)Nc1ccccc1F [PCM-0102856]" value_reported=106
molecule="O=C(Nc1ccccc1)C1CCN(C(=O)CCl)CC1 [PCM-0102219]" value_reported=5.6
molecule="Cc1ccc(NC(=O)CCl)c(C)c1 [PCM-0103041]" value_reported=75.7
molecule="CCOC(=O)C1CCCCN1C(=O)CCl (stereo not shown) [PCM-0102937]" value_reported=90.3
molecule="C=CC(=O)N1CCN(C(=O)OCC(C)C)CC1 [PCM-0102449]" value_reported=103
molecule="C=CC(=O)N1CCC(CN)CC1.Cl [PCM-0102467]" value_reported=95.4
molecule="CCc1cc(C(=O)NNC(=O)CCl)sc1C [PCM-0102300]" value_reported=45.9
molecule="CC1CCN(C(=O)CCl)C2CCCCC12 (stereo not shown) [PCM-0102831]" value_reported=14.7
molecule="O=C(CCl)Nc1ccc(N2CCCCC2)nc1 [PCM-0102812]" value_reported=32.5
molecule="O=C1CN(C(=O)CCl)c2ccccc2N1 [PCM-0102362]" value_reported=79.8
molecule="CN(Cc1ccc(Cl)cc1)C(=O)CCl [PCM-0102344]" value_reported=4.3
molecule="CC(C)C(C#N)N1CCN(C(=O)CCl)CC1 (stereo not shown) [PCM-0102263]" value_reported=64
molecule="O=C(CCl)Nc1cccc(Cl)c1 [PCM-0102198]" value_reported=9
molecule="C=CC(=O)N1CCN(C)CC1 [PCM-0102634]" value_reported=99.6
molecule="CC(NC(=O)CCl)c1ccc2ccccc2c1 (stereo not shown) [PCM-0102350]" value_reported=66
molecule="CN(C)C(=O)CN1CCN(C(=O)CCl)CC1.Cl [PCM-0102304]" value_reported=107
molecule="C=CC(=O)NC1CCC(c2nc(C)no2)CC1 (stereo not shown) [PCM-0102521]" value_reported=101
molecule="C=CC(=O)NCC1CCC2(CCOCC2)C1O (stereo not shown) [PCM-0102569]" value_reported=110
molecule="C=CC(=O)N1CCc2sccc2C1c1cccs1 (stereo not shown) [PCM-0102640]" value_reported=97.9
molecule="CC(NC(=O)CCl)C1CC2CCC1C2 (stereo not shown) [PCM-0102572]" value_reported=92
molecule="COc1ccc(Cl)cc1C(=O)NNC(=O)CCl [PCM-0102763]" value_reported=73.6
molecule="C=CC(=O)NC1CCN(C(C)=O)Cc2cc(F)ccc21 (stereo not shown) [PCM-0102635]" value_reported=101
molecule="O=C(CCl)N1CCN(S(=O)(=O)c2ccc3c(c2)CCC3)CC1 [PCM-0102193]" value_reported=2.7
molecule="C=CC(=O)NCC1CCCCC1 [PCM-0102766]" value_reported=97.5
molecule="O=C(Nc1ccccc1O)C1CCN(C(=O)CCl)CC1 [PCM-0102389]" value_reported=35.7
molecule="Cc1ccc(N(C(=O)CCl)C2C=CS(=O)(=O)C2)cc1 (stereo not shown) [PCM-0102539]" value_reported=23.3
molecule="O=C(CCl)Nc1cccnc1Cl [PCM-0102274]" value_reported=84.4
molecule="C=CC(=O)NCc1cccc(C(F)(F)F)c1 [PCM-0102825]" value_reported=97.4
molecule="CC1CN(c2ccc(NC(=O)CCl)cc2)CC(C)O1 (stereo not shown) [PCM-0102750]" value_reported=65.9
